Values were extracted from patent US12581252B2.

Listing of entries alongside the reported IC50.
- ASSAYED TARGET: H1047R PIK3CA enzyme (Homo sapiens, UniProt P42336, H1047R)
- Sequence (P42336 whole entry H1047R): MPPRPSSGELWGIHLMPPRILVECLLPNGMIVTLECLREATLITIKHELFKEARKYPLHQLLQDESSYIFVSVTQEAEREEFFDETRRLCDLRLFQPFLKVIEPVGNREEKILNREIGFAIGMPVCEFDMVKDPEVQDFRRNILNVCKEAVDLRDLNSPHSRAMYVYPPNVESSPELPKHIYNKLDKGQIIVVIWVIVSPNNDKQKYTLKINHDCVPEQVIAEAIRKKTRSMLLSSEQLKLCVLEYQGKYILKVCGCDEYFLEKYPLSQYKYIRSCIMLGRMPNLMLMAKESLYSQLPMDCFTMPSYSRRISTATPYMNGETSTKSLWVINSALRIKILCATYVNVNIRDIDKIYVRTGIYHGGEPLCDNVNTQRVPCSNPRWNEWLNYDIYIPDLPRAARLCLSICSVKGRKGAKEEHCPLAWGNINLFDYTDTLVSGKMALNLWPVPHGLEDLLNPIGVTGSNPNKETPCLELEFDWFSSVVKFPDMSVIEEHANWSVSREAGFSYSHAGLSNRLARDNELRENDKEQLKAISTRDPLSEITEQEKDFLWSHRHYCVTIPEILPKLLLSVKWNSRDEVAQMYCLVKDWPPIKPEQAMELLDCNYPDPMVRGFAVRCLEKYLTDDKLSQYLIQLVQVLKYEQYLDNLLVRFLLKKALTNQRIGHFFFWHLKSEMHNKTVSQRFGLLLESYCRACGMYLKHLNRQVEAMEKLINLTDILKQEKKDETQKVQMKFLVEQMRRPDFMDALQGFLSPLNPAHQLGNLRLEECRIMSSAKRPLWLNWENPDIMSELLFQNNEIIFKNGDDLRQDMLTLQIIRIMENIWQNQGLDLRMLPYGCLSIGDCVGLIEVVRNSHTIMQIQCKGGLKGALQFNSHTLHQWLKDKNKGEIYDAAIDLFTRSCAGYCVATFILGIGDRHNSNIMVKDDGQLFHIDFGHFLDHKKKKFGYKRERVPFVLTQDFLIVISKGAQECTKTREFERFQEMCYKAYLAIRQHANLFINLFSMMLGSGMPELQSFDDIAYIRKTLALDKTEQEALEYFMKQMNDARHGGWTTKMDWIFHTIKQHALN
- Sequence (P27986 whole entry partner): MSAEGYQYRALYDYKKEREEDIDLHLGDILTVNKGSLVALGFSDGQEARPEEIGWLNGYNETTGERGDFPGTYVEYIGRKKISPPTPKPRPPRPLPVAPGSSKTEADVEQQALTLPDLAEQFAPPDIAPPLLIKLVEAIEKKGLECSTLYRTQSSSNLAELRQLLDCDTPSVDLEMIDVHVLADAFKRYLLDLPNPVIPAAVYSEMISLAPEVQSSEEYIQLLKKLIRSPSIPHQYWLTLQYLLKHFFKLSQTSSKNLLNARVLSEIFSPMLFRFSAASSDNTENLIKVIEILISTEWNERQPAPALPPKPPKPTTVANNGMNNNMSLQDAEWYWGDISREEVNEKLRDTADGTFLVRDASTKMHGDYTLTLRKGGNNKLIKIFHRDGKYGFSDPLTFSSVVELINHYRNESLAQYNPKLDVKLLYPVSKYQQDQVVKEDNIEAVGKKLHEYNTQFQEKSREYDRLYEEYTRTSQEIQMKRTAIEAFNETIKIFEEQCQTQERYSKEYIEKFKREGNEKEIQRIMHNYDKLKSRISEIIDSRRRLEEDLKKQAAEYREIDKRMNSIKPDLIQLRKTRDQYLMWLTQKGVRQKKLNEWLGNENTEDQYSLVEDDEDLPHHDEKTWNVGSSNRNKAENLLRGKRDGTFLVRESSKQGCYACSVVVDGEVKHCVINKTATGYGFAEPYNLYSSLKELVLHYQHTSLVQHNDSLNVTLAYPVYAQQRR
- ASSAY INFO: ADP-Glo Biochemical PIK3CA Kinase Assay
OBSERVABLE: IC50

> print(dat)
                                   compound  observable  observed.value
1  CC(=O)Nc1cc(NC(=O)c2cc(F)cc(C(F)(F)F)c2)c2c(c1)C(=O)NC2c1cc(F)ccc1Cl (stereo not drawn) [Compound I-423]        IC50        ≤ 100 nM
2  N#CC1(n2cc(-c3cc(NC(=O)c4cc(F)cc(C(F)(F)F)c4)c4c(c3)C(=O)N[C@H]4c3cc(F)ccc3Cl)cn2)CC1 [Compound I-1886]        IC50        ≤ 100 nM
3  Cn1nccc1CNc1cc(NC(=O)c2cc(F)cc(C(F)(F)F)c2)c2c(c1)C(=O)NC2c1cc(F)ccc1Cl (stereo not drawn) [Compound I-1082]        IC50        ≤ 100 nM
